# testMethodNotes: Pharmacokinetics in Sprague-Dawley rats
# Format: in vivo
# testParameters: both sexes, Sprague-Dawley, rat, plasma, po, 1 mg/kg; rats, sexes not separated (discussion); read-out: oral bioavailability (rats, overall)
endpointName: bioavailability (%)
Give bare numbers, in %.

Need bioavailability of NC(=O)[C@](O)(CNc1nc(-c2cc(-c3ccon3)n(Cc3ccccc3F)n2)ncc1F)C(F)(F)F , thanks.
40

* * *

# testMethodNotes: Pharmacokinetics in Sprague-Dawley rats
# Format: in vivo
# testParameters: rat, plasma, iv; female Sprague Dawley rats, i.v. 0.3 mg/kg; read-out: Vss
endpointName: Vd (L/kg)
Answers are plain numbers, in L/kg.

Need Vd of NC(=O)[C@](O)(CNc1nc(-c2cc(-c3ccon3)n(Cc3ccccc3F)n2)ncc1F)C(F)(F)F , thanks.
0.9

* * *

# testMethodNotes: Pharmacokinetics in Sprague-Dawley rats
# Format: in vivo
# testParameters: rat, plasma, po, 1 mg/kg; female Sprague Dawley rats; read-out: Oral bioavailability
endpointName: bioavailability (%)
Give bare numbers, in %.

Need bioavailability of NC(=O)[C@](O)(CNc1nc(-c2cc(-c3ccon3)n(Cc3ccccc3F)n2)ncc1F)C(F)(F)F , thanks.
45

* * *

# testMethodNotes: Pharmacokinetics in Sprague-Dawley rats
# Type: in vivo
# testParameters: rat, plasma, po; male Sprague Dawley rats, p.o. 1 mg/kg
endpointName: Tmax (h)
Give bare numbers, in h.

Need Tmax of NC(=O)[C@](O)(CNc1nc(-c2cc(-c3ccon3)n(Cc3ccccc3F)n2)ncc1F)C(F)(F)F [olinciguat] , thanks.
1

* * *

# testMethodNotes: Pharmacokinetics in Sprague-Dawley rats
# Format: in vivo
# testParameters: rat, plasma, po, 1 mg/kg; male Sprague Dawley rats; read-out: Oral bioavailability
endpointName: bioavailability (%)
One number for each entry, in %.

Need bioavailability of NC(=O)[C@](O)(CNc1nc(-c2cc(-c3ccon3)n(Cc3ccccc3F)n2)ncc1F)C(F)(F)F , thanks.
36

* * *

# testMethodNotes: Olinciguat plasma concentration in hemodynamic study (pooled Wistar and SHR)
# Format: in vivo, rat
# testParameters: male, Wistar and SHR (spontaneously hypertensive rat), pooled, rat, plasma, oral; 10 mg/kg p.o. QD; mean and SEM of 6 animals (n=3 Wistar, n=3 SHR); read-out: average plasma concentration 1 h after dosing on Day 4
endpointName: concentration at 1 h (nM)
Give bare numbers, in nM.

Need concentration at 1 h of NC(=O)[C@](O)(CNc1nc(-c2cc(-c3ccon3)n(Cc3ccccc3F)n2)ncc1F)C(F)(F)F , thanks.
245
